Tested on: Klebsiella pneumoniae
Test: In vitro antibacterial activity, agar dilution method (MIC)
Format: cell-based
Details: Klebsiella pneumoniae, ATCCBAA2146, 18 h, Klebsiella pneumoniae ATCC BAA-2146 (CRE, NDM-1-producing); agar dilution, 35°C, 18 hours
Description: According to the relevant operating procedures of the Clinical Laboratory Standards Institute (CLSI) in the United States, an antimicrobial susceptibility testing was conducted using the agar dilution method. […]. The agar was allowed to solidify and set aside for later use. The test bacteria were propagated in broth and adjusted to a turbidity of 0.5 McFarland (approximately 1-2 × 10^8 CFU/mL) using a turbidimeter before inoculation. […]
I'd appreciate it if you could supply MIC values for the items below.
Only the number, expressed in µg/mL, is required.

input: Supply measured MIC of `COC[C@H]1C[C@@H]1C#CC#Cc1ccc(C(=O)N[C@H](C(=O)NO)C(C)(C)N)cc1` in your reply.
output: 2

input: Supply measured MIC of CO/N=C(\C(=O)N[C@@H]1C(=O)N2C(C(=O)[O-])=C(C[N+]3(C)CCCC3)CS[C@H]12)c1csc(N)n1 [Cefepime] in your reply.
output: 128

input: Supply measured MIC of `CN(C)c1cc(NC(=O)CNC(C)(C)C)c(O)c2c1C[C@H]1C[C@H]3[C@H](N(C)C)C(O)=C(C(N)=O)C(=O)[C@@]3(O)C(O)=C1C2=O` in your reply.
output: 8

input: Supply measured MIC of `CC(C)(N)[C@H](NC(=O)c1ccc(C#CC#C[C@@H]2C[C@H]2CO)cc1)C(=O)NO` in your reply.
output: 4

====

system: ICR strain mice; assay: Acute toxicity in mice, single tail vein injection; format: in vivo; conditions: dose 150 mg/kg, one week
Readout Label: Mortality rate (%)
Only the number, expressed in %, is required.

input: Supply measured Mortality rate of COCC1CC1C#CC#Cc1ccc(C(=O)NC(C(=O)NO)C(C)(C)N)cc1 (mixture of isomers) [Ia/Ib racemate] in your reply.
output: 100

input: Supply measured Mortality rate of COC[C@H]1C[C@H]1C#CC#Cc1ccc(C(=O)N[C@H](C(=O)NO)C(C)(C)N)cc1 [Ic] in your reply.
output: 33

input: Supply measured Mortality rate of COC[C@@H]1C[C@@H]1C#CC#Cc1ccc(C(=O)N[C@H](C(=O)NO)C(C)(C)N)cc1 [Id] in your reply.
output: 67

input: Supply measured Mortality rate of CC(C)(N)[C@H](NC(=O)c1ccc(C#CC#C[C@@H]2C[C@H]2CO)cc1)C(=O)NO [ACHN-975] in your reply.
output: 100

input: Supply measured Mortality rate of CO[C@H]1CCC[C@@H]1C#CC#Cc1ccc(C(=O)N[C@H](C(=O)NO)C(C)(C)N)cc1 [A] in your reply.
output: 0

input: Supply measured Mortality rate of COC[C@@H]1C[C@H]1C#CC#Cc1ccc(C(=O)N[C@H](C(=O)NO)C(C)(C)N)cc1 [Ia] in your reply.
output: 0

input: Supply measured Mortality rate of COC[C@H]1C[C@@H]1C#CC#Cc1ccc(C(=O)N[C@H](C(=O)NO)C(C)(C)N)cc1 [Ib] in your reply.
output: 0

====

Test system: Klebsiella pneumoniae
Assay: In vitro antibacterial activity, agar dilution method (MIC)
Type: cell-based
Conditions: Klebsiella pneumoniae, ATCC700603, 18 h, Klebsiella pneumoniae ATCC 700603 (ESBLs-producing); agar dilution, 35°C, 18 hours; read-out: MIC
Experimental: According to the relevant operating procedures of the Clinical Laboratory Standards Institute (CLSI) in the United States, an antimicrobial susceptibility testing was conducted using the agar dilution method. […]. The agar was allowed to solidify and set aside for later use. The test bacteria were propagated in broth and adjusted to a turbidity of 0.5 McFarland (approximately 1-2 × 10^8 CFU/mL) using a turbidimeter before inoculation. […]
Readout Label: MIC (µg/mL)
Only the number, expressed in µg/mL, is required.

input: # assay system Klebsiella pneumoniae: give MIC of `COC[C@@H]1C[C@@H]1C#CC#Cc1ccc(C(=O)N[C@H](C(=O)NO)C(C)(C)N)cc1`
output: 2

input: # assay system Klebsiella pneumoniae: give MIC of `CN(C)c1cc(NC(=O)CNC(C)(C)C)c(O)c2c1C[C@H]1C[C@H]3[C@H](N(C)C)C(O)=C(C(N)=O)C(=O)[C@@]3(O)C(O)=C1C2=O`
output: 8

input: # assay system Klebsiella pneumoniae: give MIC of `COC[C@H]1C[C@H]1C#CC#Cc1ccc(C(=O)N[C@H](C(=O)NO)C(C)(C)N)cc1`
output: 1

input: # assay system Klebsiella pneumoniae: give MIC of `C[C@H]1COc2c(N3CCN(C)CC3)c(F)cc3c(=O)c(C(=O)O)cn1c23`
output: 1

input: # assay system Klebsiella pneumoniae: give MIC of `CO[C@H]1CCC[C@@H]1C#CC#Cc1ccc(C(=O)N[C@H](C(=O)NO)C(C)(C)N)cc1`
output: 8

input: # assay system Klebsiella pneumoniae: give MIC of `C[C@@H](O)[C@H]1C(=O)N2C(C(=O)O)=C(SCCN=CN)C[C@H]12`
output: 0.25

====

I'd appreciate it if you could supply MIC values for the items below.
system: Shigella flexneri; assay: In vitro antibacterial activity, agar dilution method (MIC); assay type: cell-based; details: ATCC12022, Shigella flexneri ATCC 12022, 35°C, 18 hours, read-out: MIC
Only the number, expressed in µg/mL, is required.

input: # assay system Shigella flexneri: give MIC of `COC[C@H]1C[C@@H]1C#CC#Cc1ccc(C(=O)N[C@H](C(=O)NO)C(C)(C)N)cc1`
output: 0.12

input: # assay system Shigella flexneri: give MIC of COCC1CC1C#CC#Cc1ccc(C(=O)N[C@H](C(=O)NO)C(C)(C)N)cc1 (some centres unmarked)
output: 0.25

input: # assay system Shigella flexneri: give MIC of `C[C@H]1[C@H](NC(=O)/C(=N\OC(C)(C)C(=O)O)c2csc(N)n2)C(=O)N1S(=O)(=O)O`
output: 0.06

input: # assay system Shigella flexneri: give MIC of `CO[C@H]1CCC[C@@H]1C#CC#Cc1ccc(C(=O)N[C@H](C(=O)NO)C(C)(C)N)cc1`
output: 0.25

input: # assay system Shigella flexneri: give MIC of `NCC[C@H](O)C(=O)N[C@@H]1C[C@H](N)[C@@H](O[C@H]2O[C@H](CN)[C@@H](O)[C@H](O)[C@H]2O)[C@H](O)[C@H]1O[C@H]1O[C@H](CO)[C@@H](O)[C@H](N)[C@H]1O`
output: 4

input: # assay system Shigella flexneri: give MIC of `COC[C@H]1C[C@H]1C#CC#Cc1ccc(C(=O)N[C@H](C(=O)NO)C(C)(C)N)cc1`
output: 0.06

input: # assay system Shigella flexneri: give MIC of `C[C@@H](O)[C@H]1C(=O)N2C(C(=O)O)=C(SCCN=CN)C[C@H]12`
output: 0.12

input: # assay system Shigella flexneri: give MIC of `COC[C@@H]1C[C@H]1C#CC#Cc1ccc(C(=O)N[C@H](C(=O)NO)C(C)(C)N)cc1`
output: 0.06

input: # assay system Shigella flexneri: give MIC of `CN(C)c1cc(NC(=O)CNC(C)(C)C)c(O)c2c1C[C@H]1C[C@H]3[C@H](N(C)C)C(O)=C(C(N)=O)C(=O)[C@@]3(O)C(O)=C1C2=O`
output: 0.12

input: # assay system Shigella flexneri: give MIC of `COC[C@@H]1C[C@@H]1C#CC#Cc1ccc(C(=O)N[C@H](C(=O)NO)C(C)(C)N)cc1`
output: 0.06

input: # assay system Shigella flexneri: give MIC of `CC(C)(N)[C@H](NC(=O)c1ccc(C#CC#C[C@@H]2C[C@H]2CO)cc1)C(=O)NO`
output: 0.12

====

test system: Klebsiella pneumoniae; test: In vitro antibacterial activity, agar dilution method (MIC); assay type: cell-based; settings: Klebsiella pneumoniae, 18 h, Klebsiella pneumoniae 17-R27 (CRE); agar dilution, 35°C, 18 hours; read-out: MIC
Readout Label: MIC (µg/mL)
Only the number, expressed in µg/mL, is required.

input: Supply measured MIC of COC[C@H]1C[C@H]1C#CC#Cc1ccc(C(=O)N[C@H](C(=O)NO)C(C)(C)N)cc1 [Ic] in your reply.
output: 0.5

input: Supply measured MIC of COCC1CC1C#CC#Cc1ccc(C(=O)N[C@H](C(=O)NO)C(C)(C)N)cc1 (stereo partly shown) [Formula I] in your reply.
output: 2

input: Supply measured MIC of NCC[C@H](O)C(=O)N[C@@H]1C[C@H](N)[C@@H](O[C@H]2O[C@H](CN)[C@@H](O)[C@H](O)[C@H]2O)[C@H](O)[C@H]1O[C@H]1O[C@H](CO)[C@@H](O)[C@H](N)[C@H]1O [Amikacin] in your reply.
output: 2

input: Supply measured MIC of CO[C@H]1CCC[C@@H]1C#CC#Cc1ccc(C(=O)N[C@H](C(=O)NO)C(C)(C)N)cc1 [A] in your reply.
output: 1
